The origin of these recorded values is the supplement of paper PMC9170038.

Test system: MS2 coat protein
Assay: apparent KD of MS2 coat protein; higher = weaker reporter binding
Details: Eterna round: R107; input ligand: tryptophan 2.4 mM
Reported apparent KD of MS2 coat protein values for the following sequences.
OBSERVATION TYPE: apparent KD of MS2 coat protein (µM)

>>> numeric_value("UAUCCACAUGAGGAUCACCCAUGUUAGGAAGGAGCGGUGAGUGCACCAGGUAGGUCGCCUAGCUGAGGACUGUCGGUGGAUUCGU [Exclusion - Arginine A (Freestyle 20)]")
0.0477
>>> numeric_value("UUAUUUAUAAUGGAUACCAGUGCUGUGGCCCGGCAUCCUGACAUGAGGAUCACCCAUGUGUACCCUUGGCAGCUGUUAUGGGUUU [XTheo B #20]")
0.0193
>>> numeric_value("GGUCGCCUACAUGGGUAGGCGAUUUUGGAAGGAGCGAGCGAGAGCUCAGGUAGGUCGCCAGCACAUGAGGAUCACCCAUGUUUUU [SSArg-A #25 Weakened 1st state]")
0.0187
